Ref: the supplement of paper PMC6757056

Task for the reader: assign each of the following variants its reported FACS-Seq fitted mean (log10).
B1: library; a variant is named by its letters at N, in order (parent)
chain: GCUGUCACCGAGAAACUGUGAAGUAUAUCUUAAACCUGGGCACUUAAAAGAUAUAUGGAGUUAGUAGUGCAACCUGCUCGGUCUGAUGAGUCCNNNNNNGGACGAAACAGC

variants of: B1; assay: FACS-Seq fitted mean relative fluorescence mCherry/BFP without ligand (log10 relative fluorescence); HEK293T; ligand: cyclic di-GMP (c-di-GMP-II aptamer); higher = higher reporter protein expression; settings: ligand present: no
API doc: respond with a numeric literal and nothing else, no unit.

Provide FACS-Seq fitted mean (log10) value for the following variant: GCUGUCACCGAGAAACUGUGAAGUAUAUCUUAAACCUGGGCACUUAAAAGAUAUAUGGAGUUAGUAGUGCAACCUGCUCGGUCUGAUGAGUCCACGAUUGGACGAAACAGC [ACGAUU] -0.694

Identify the reported FACS-Seq fitted mean (log10) for the following entry. GCUGUCACCGAGAAACUGUGAAGUAUAUCUUAAACCUGGGCACUUAAAAGAUAUAUGGAGUUAGUAGUGCAACCUGCUCGGUCUGAUGAGUCCAUAGAAGGACGAAACAGC [AUAGAA] -0.406

Provide one value: measured FACS-Seq fitted mean (log10) of GCUGUCACCGAGAAACUGUGAAGUAUAUCUUAAACCUGGGCACUUAAAAGAUAUAUGGAGUUAGUAGUGCAACCUGCUCGGUCUGAUGAGUCCCCGGCUGGACGAAACAGC [CCGGCU] -0.0371

Entry GCUGUCACCGAGAAACUGUGAAGUAUAUCUUAAACCUGGGCACUUAAAAGAUAUAUGGAGUUAGUAGUGCAACCUGCUCGGUCUGAUGAGUCCCUCAGAGGACGAAACAGC [CUCAGA] needs its FACS-Seq fitted mean (log10) filled in; supply it. -0.23

Identify the reported FACS-Seq fitted mean (log10) for the following entry. GCUGUCACCGAGAAACUGUGAAGUAUAUCUUAAACCUGGGCACUUAAAAGAUAUAUGGAGUUAGUAGUGCAACCUGCUCGGUCUGAUGAGUCCUUCACUGGACGAAACAGC [UUCACU] -0.67
